# PROTOCOL SUMMARY: Dissociation constant, pKa of the compound
# Assay type: physicochemical
List of pKa values.
Output spec: single numeric token, no unit.

COMPOUND | pKa
NCc1ccccc1 | 9.6

Ask: // returns reported pKa for input C[S+](C)[O-] [DIMETHYL SULFOXIDE]
Result: 1.54

Ask: # get_value(readout='pKa', item= "c1ccnnc1" )
Result: 2.24

Ask: Give the measured pKa of "CN(C)C(=O)c1ccccc1" .
Result: 1.2

Reference source: ChEMBL document CHEMBL3860047
